Test system: HepG2
Assay: Potency index, ratio of erlotinib hydrochloride IC50 to compound IC50 for human HepG2 cells
Format: functional

entry.smiles: O=[N+]([O-])c1ccccc1-n1cc(-c2cccc(Nc3ncnc4cc5c(cc34)OCCO5)c2)nn1
study.system: HepG2
Ratio IC50: <=100

entry.smiles: C#Cc1cccc(Nc2ncnc3ccccc23)c1
study.system: HepG2
Ratio IC50: <=100

entry.smiles: O=[N+]([O-])c1cccc(-n2cc(-c3cccc(Nc4ncnc5cc6c(cc45)OCO6)c3)nn2)c1
study.system: HepG2
Ratio IC50: <=100

entry.smiles: C#Cc1cccc(Nc2ncnc3cc4c(cc23)OCCO4)c1
study.system: HepG2
Ratio IC50: <=100

entry.smiles: N#Cc1cc(-n2cc(-c3cccc(Nc4ncnc5ccccc45)c3)nn2)ccc1C(F)(F)F
study.system: HepG2
Ratio IC50: <=100

entry.smiles: O=[N+]([O-])c1ccccc1-n1cc(-c2cccc(Nc3ncnc4ccccc34)c2)nn1
study.system: HepG2
Ratio IC50: <=100

entry.smiles: O=[N+]([O-])c1ccccc1-n1cc(-c2cccc(Nc3ncnc4cc5c(cc34)OCCCO5)c2)nn1
study.system: HepG2
Ratio IC50: <=100

entry.smiles: O=[N+]([O-])c1ccc(-n2cc(-c3cccc(Nc4ncnc5ccccc45)c3)nn2)cc1
study.system: HepG2
Ratio IC50: <=100

entry.smiles: N#Cc1cc(-n2cc(-c3cccc(Nc4ncnc5cc6c(cc45)OCCCO6)c3)nn2)ccc1C(F)(F)F
study.system: HepG2
Ratio IC50: <=100

entry.smiles: O=[N+]([O-])c1cccc(-n2cc(-c3cccc(Nc4ncnc5cc6c(cc45)OCCO6)c3)nn2)c1
study.system: HepG2
Ratio IC50: <=100

entry.smiles: N#Cc1cc(-n2cc(-c3cccc(Nc4ncnc5cc6c(cc45)OCO6)c3)nn2)ccc1C(F)(F)F
study.system: HepG2
Ratio IC50: <=100

entry.smiles: N#Cc1cc(-n2cc(-c3cccc(Nc4ncnc5cc6c(cc45)OCCO6)c3)nn2)ccc1C(F)(F)F
study.system: HepG2
Ratio IC50: <=100

Taken from ChEMBL document CHEMBL4325840.
